- Test system: HIV-1 (HTLV-IIIB)
- procedure.summary: microbe, parasite or virus in culture
- Format: cell-based
- conditions: Human immunodeficiency virus 1, IIIB, MT4, 120 h, read-out: ED50
pEC50: −log10 of the molar value.
observable: pEC50

Consider the compound Cc1cn([C@H]2C[C@H](N=[N+]=[N-])[C@@H](CO)O2)c(=O)[nH]c1=O [AZT, reference compound] . State its measured pEC50. > 8.10
